Biological target: human CLC-2 (Homo sapiens)
Sequence (P51788 2-898): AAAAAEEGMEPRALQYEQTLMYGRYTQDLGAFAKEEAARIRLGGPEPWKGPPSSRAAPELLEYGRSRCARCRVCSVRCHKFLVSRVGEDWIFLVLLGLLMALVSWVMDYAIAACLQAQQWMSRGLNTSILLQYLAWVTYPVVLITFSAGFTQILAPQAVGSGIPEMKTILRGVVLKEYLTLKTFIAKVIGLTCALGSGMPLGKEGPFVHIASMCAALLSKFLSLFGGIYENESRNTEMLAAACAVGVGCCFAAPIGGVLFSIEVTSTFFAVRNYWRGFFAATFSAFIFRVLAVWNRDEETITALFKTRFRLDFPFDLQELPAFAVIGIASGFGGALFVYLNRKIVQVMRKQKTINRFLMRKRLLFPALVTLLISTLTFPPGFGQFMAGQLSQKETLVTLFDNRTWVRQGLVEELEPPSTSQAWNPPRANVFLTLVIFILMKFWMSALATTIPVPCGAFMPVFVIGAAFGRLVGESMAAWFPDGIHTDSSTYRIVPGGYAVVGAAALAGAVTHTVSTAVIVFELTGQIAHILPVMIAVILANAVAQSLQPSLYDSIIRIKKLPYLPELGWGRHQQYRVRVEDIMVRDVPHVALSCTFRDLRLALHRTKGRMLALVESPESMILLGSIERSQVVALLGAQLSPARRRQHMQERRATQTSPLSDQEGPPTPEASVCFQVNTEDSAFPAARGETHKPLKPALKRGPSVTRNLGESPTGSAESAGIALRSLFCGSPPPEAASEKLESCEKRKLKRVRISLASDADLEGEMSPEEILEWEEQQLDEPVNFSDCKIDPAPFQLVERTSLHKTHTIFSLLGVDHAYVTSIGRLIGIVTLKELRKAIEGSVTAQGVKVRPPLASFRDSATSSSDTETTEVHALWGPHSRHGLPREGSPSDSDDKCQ
Assay: cell-based
Settings: CHO, read-out: % inhibition, cell 2
Quantity Name: inhibition at 30 µM (%)
Field format: number, assumed %, no unit text.

Reported inhibition at 30 µM for CCCc1nc2c(C)cc(-c3nc4ccccc4n3C)cc2n1Cc1ccc(-c2ccccc2C(=O)O)cc1 was 7

get_value(item= COc1ccc2cc([C@H](C)C(=O)O)ccc2c1 , readout=inhibition at 30 µM) returns 15

Lab note: CC(=O)S[C@@H]1CC2=CC(=O)CC[C@]2(C)[C@H]2CC[C@@]3(C)[C@@H](CC[C@@]34CCC(=O)O4)[C@H]12 gave inhibition at 30 µM of 19

inhibition at 30 µM in this record for O=C(O)c1cc(-c2ccc(F)cc2F)ccc1O : 27

// field: inhibition at 30 µM; key: CCC[C@@H]1C[C@@H](C(=O)N[C@@H]([C@H]2O[C@H](SC)[C@H](O)[C@@H](O)[C@H]2O)[C@H](C)Cl)N(C)C1 ; value = 21

// inhibition at 30 µM lookup, compound = CCCCc1ncc(/C=C(\Cc2cccs2)C(=O)O)n1Cc1ccc(C(=O)O)cc1 , result: 9

Please fill in: inhibition at 30 µM reported for CN(C)CCCC1(c2ccc(F)cc2)OCc2cc(C#N)ccc21 (stereo not drawn) = 22

Query Oc1c(Cl)cc(Cl)c(Cl)c1Cc1c(O)c(Cl)cc(Cl)c1Cl yields inhibition at 30 µM of 40

compound O=C1Cc2cc(CCN3CCN(c4nsc5ccccc45)CC3)c(Cl)cc2N1 , inhibition at 30 µM observed: 35
